system-name: N-formyl peptide receptor 2 (Homo sapiens)
assay-method-text: human FPRL1 ligands by binding competition, primary screen, cell-based, FPR counter-screen, flow cytometry (AID 441);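 further: 0% = buffer alone and 100% = receptor blocker peptide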
measurement-context: FPRL1-expressing cells, fluorescent ligand binding inhibition, hits give high values, concentration not given here
In all, about 24,000 compounds went through this assay and about 70 (0.3%) were called active. The list comes from a sample in which actives are over-represented; it also holds close analogues and randomly drawn compounds.
Parameter inhibition: see the listing below.

{"molecule": "O=C(C1=C(O)C(=O)N(Cc2ccccc2)C1c1cccnc1)c1ccco1 (stereo not given)", "unit": "%", "inhibition": 1.3}
{"molecule": "Cc1cc(NC(=O)c2cc(-c3cccs3)on2)nn1Cc1ccc(Cl)cc1", "unit": "%", "inhibition": 2}
{"molecule": "O=C(CN1C(=O)CCS(=O)(=O)c2ccccc21)NCc1ccc(F)cc1", "unit": "%", "inhibition": 1.5}
{"molecule": "COc1cccc(C(CC(=O)NCCN2CCOCC2)NS(=O)(=O)c2ccc(C)cc2)c1OC (stereo not given)", "unit": "%", "inhibition": 0.8}
{"molecule": "COC(=O)c1ccc(CN(c2ccccc2OC)S(=O)(=O)c2cccs2)o1", "unit": "%", "inhibition": -4.4}

###

A collection of compounds and their measured inhibition
system-name: N-formyl peptide receptor 2 (Homo sapiens)
assay-method-text: human FPRL1 ligands by binding competition, primary screen, cell-based, FPR counter-screen, flow cytometry (AID 441);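 further: 0% = buffer alone and 100% = receptor blocker peptide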
measurement-context: FPRL1-expressing cells, fluorescent ligand binding inhibition, hits give high values, concentration not given here
Hit rate of the full screen: of about 24,000 compounds, about 70 (0.3%) were called active. The sample as a whole holds a higher share of actives than the screen did.

{"compound": "Cc1cccc(NC(=O)CSc2nnc(NC(=O)CN3CCOCC3)s2)c1", "inhibition, %": 8.7}
{"compound": "O=C(CC(NCCN1CCOCC1)C(=O)O)Nc1cccc(Cl)c1 (stereo unspecified)", "inhibition, %": 4.9}
{"compound": "O=C(O)Cc1ccc(NC(=O)C2CCCCC2C(=O)O)cc1 (stereo unspecified)", "inhibition, %": -3.1}
{"compound": "COc1cccc(CN2C(=O)CCC2(C)C(=O)NC2CCCCCC2)c1 (stereo unspecified)", "inhibition, %": 7.7}
{"compound": "COc1ccc(/C(O)=C2\\C(=O)C(=O)N(Cc3ccco3)C2c2ccc(OC)cc2OC)cc1 (stereo unspecified)", "inhibition, %": 26.8}
{"compound": "CCOC(=O)C1CCCN(Cc2nc(N)nc(Nc3ccc(C)cc3)n2)C1 (stereo unspecified)", "inhibition, %": -0.4}
{"compound": "COc1cccc(OCC(O)CN2CCN(CCO)CC2)c1 (stereo unspecified)", "inhibition, %": 2.6}
{"compound": "O=C(Nc1ccccc1)N(Cc1cccnc1)Cc1ccco1", "inhibition, %": 3.6}
{"compound": "O=C(Cc1nn[nH]n1)NCCC1=CCCCC1", "inhibition, %": 3.2}
{"compound": "Cc1cc(C)c(C#N)c(SCc2[nH]nc3c2C(c2ccccc2)C(C#N)=C(N)O3)n1 (stereo unspecified)", "inhibition, %": -9.6}
{"compound": "CCOc1ccc(OCC)c(NC(=O)CN(C)S(=O)(=O)c2cccc3nsnc23)c1", "inhibition, %": -4.8}

###

system-name: N-formyl peptide receptor 2 (Homo sapiens)
assay-method-text: human FPRL1 ligands by binding competition, primary screen, cell-based, FPR counter-screen, flow cytometry (AID 441);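 further: 0% = buffer alone and 100% = receptor blocker peptide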
measurement-context: FPRL1-expressing cells, fluorescent ligand binding inhibition, hits give high values, concentration not given here
The campaign covered roughly 24,000 compounds. About 70 (0.3%) were called active. The entries come from a sample that favours actives as a whole.

{"compound": "CCCCOC(=O)Nc1nccs1", "inhibition, %": -2.9}
{"compound": "COC(=O)C1=C(C)OC(N)=C(C#N)C1c1cc(OC)ccc1OC (configuration not stated)", "inhibition, %": 5.9}
{"compound": "CCn1ncc(Br)c1C(=O)Nc1cc(C)ccc1F", "inhibition, %": -0.1}
{"compound": "O=C(O)C1CCCCC1C(=O)Nc1ccc(Cl)cc1 (configuration not stated)", "inhibition, %": -0.4}
{"compound": "CCOc1ccc2c(=O)c(-c3ccc4c(c3)OCCCO4)c(C)oc2c1", "inhibition, %": -9.1}
{"compound": "CCOC(=O)c1oc2c(CN3CCN(C)CC3)c(O)ccc2c(=O)c1-c1ccc(Br)cc1", "inhibition, %": -3}
{"compound": "CCCn1cc(SCC(N)=O)c2ccccc21", "inhibition, %": 0.9}
{"compound": "CC1C=CCC2C(=O)N(c3cccc(C(=O)N4CCCCCC4)c3)C(=O)C12 (configuration not stated)", "inhibition, %": -6.5}
{"compound": "O=C(Cn1cnc2c(nnn2Cc2ccc(F)cc2)c1=O)NCc1ccc2c(c1)OCO2", "inhibition, %": -2.3}
{"compound": "N#CCCN1CCN(S(=O)(=O)c2ccc(S(=O)(=O)N3CCCC3)cc2)CC1", "inhibition, %": 1.9}
{"compound": "CCOc1cccc(/C(O)=C2/C(=O)C(=O)N(CCOC)C2c2ccncc2)c1 (configuration not stated)", "inhibition, %": -3.8}
{"compound": "CCn1cc(C(=O)NC2CCCCCC2)c(=O)c2cc(S(=O)(=O)N3CCCCC3)ccc21", "inhibition, %": -5.2}
